Hello, the source for this data is patent US20230243070A1, in case you need it.

# System: T1, NYESOpMHC (HLA-A*0201:NYESO1-9V), biotinylated recombinant complex (human)
# T1 construct: also called NY-ESO-1 peptide-MHC complex
# Experiment: SPR (ProteOn), biotinylated pMHC on NLC chip, PBS with Tween
pKd: −log10 of the molar value.

# Binder, pKd
data = [
    ("DARPin® protein #32 (designed binder) MRGSHHHHHHGSDLGKKLLQAARAGQLDEVRELLKAGADVNAKDYFGSTPLHLAQLGHLEIVEVLLKAGADVNAKDYQGHTPLHVDAFHGHLEIVEVLLKAGADVNAKDQWGVTPLHLAAEWGHLEIVEVLLKAGADVNAQDKSGKTPADLAARAGHQDIAEVLQKAA", 8.79),
    ("DARPin® protein #20 (designed binder) MRGSHHHHHHGSDLGKKLLQAARAGQLDEVRELLKAGADVNAKDQSGATPLHLAAFRGHLEIVEVLLKAGADVNAKDAAGYTPLHIAAVYGHLEIVEVLLKAGADVNAKDSAGETPLHLAAYAGHLEIVEVLLKAGADVNAQDKSGKTPADLAARAGHQDIAEVLQKAA", 8.24),
    ("DARPin® protein #22 (designed binder) MRGSHHHHHHGSDLGKKLLQAARAGQLDEVRELLKAGADVNAKDAIGFTPLHLAAFSGHLEIVEVLLKAGADVNAKDVAGYTPLHVAALYGHLVIVEVLLKAGADVNAKDKAGETPLHLAAFAGHLEIVEVLLKAGADVNAQDKSGKTPADLAARAGHQDIAEVLQKAA", 10.16),
    ("DARPin® protein #26 (designed binder) MRGSHHHHHHGSDLGEKLLFAAFIGQDDEVRILLAAGADVNAKDEYGHTPLHAAAQHGHLEIVEVLLKAGADVNAKDQFGLTPLHIAAIFGHLEIVEVLLKAGADVNAQDHAGYTPADLAAWQGHEDIAEVLQKAA", 8.89),
    ("DARPin® protein #27 (designed binder) MRGSHHHHHHGSDLGFKLLQAAHYGQDDEVRILLAAGADVNAKDEYGRTPLHHAALKGHLEIVEVLLKAGADVNAKDEFGTTPLHYAAIFGHLEIVEVLLKAGADVNAQDSSGFTPADLAALVGHEDIAEVLQKAA", 9.31),
]
